Each item that follows carries a reported abundance fitness.
B1: Segment polarity protein dishevelled homolog DVL-3, residues 2 to 81; numbered along this chain, Q92997 (parent)
chain: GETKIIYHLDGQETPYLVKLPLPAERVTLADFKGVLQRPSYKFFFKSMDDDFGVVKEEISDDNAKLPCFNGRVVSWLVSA

# Variants of: B1
# experimental_protocol: abundance fitness (aPCA) (normalised: wild type 0, dead -1); higher = more abundant; growth selection in yeast, the domain comes from the species named
# test_settings: Homo sapiens

- construct_sequence: "GETKIIYHLDGQETPYLVKLPLPAERVTLADFKGVLQRPSYKFFFKSMDDDFGVVKEEISDDNAKLPCFNGRGVSWLVSA [V73G]"
  abundance fitness: -0.681
- construct_sequence: "GETKIIYHLDGQETPYLVKLPLPAERVTLADFKGVLQRPSYKFFFKSMDDDFIVVKEEISDDNAKLPCFNGRVVSWLVSA [G53I]"
  abundance fitness: -0.501
- construct_sequence: "GETKIIYHLDGQETPYLVKLPLPAERVTLADFKIVLQRPSYKFFFKSMDDDFGVVKEEISDDNAKLPCFNGRVVSWLVSA [G34I]"
  abundance fitness: -0.519
- construct_sequence: "GETKIIYHLDGQETPYLVKLPLPAERVTLADFKGVLQRPSYKFFFKSMDDDFGVVKEEISDCNAKLPCFNGRVVSWLVSA [D62C]"
  abundance fitness: -1.05
- construct_sequence: "GETKIIYHLDGQETPYLVKLPLPAERVTLADFKGVLQRPSYKFFFKSMDDDFGVVKEEIFDDNAKLPCFNGRVVSWLVSA [S60F]"
  abundance fitness: -0.189
- construct_sequence: "GETKIIYHLDGQETPYLVKLPLPAERVTLADFKGVLQRPSYKFFFKSMDDDRGVVKEEISDDNAKLPCFNGRVVSWLVSA [F52R]"
  abundance fitness: 0.618
- construct_sequence: "GETKIIYHLDGQETPYLVKLPLPAPRVTLADFKGVLQRPSYKFFFKSMDDDFGVVKEEISDDNAKLPCFNGRVVSWLVSA [E25P]"
  abundance fitness: -0.965
- construct_sequence: "GETKIIYHLDGQETPYLVKLPLPAERVTIADFKGVLQRPSYKFFFKSMDDDFGVVKEEISDDNAKLPCFNGRVVSWLVSA [L29I]"
  abundance fitness: -0.675
- construct_sequence: "GETKIIYHLDGQETPYLVKLPGPAERVTLADFKGVLQRPSYKFFFKSMDDDFGVVKEEISDDNAKLPCFNGRVVSWLVSA [L22G]"
  abundance fitness: -0.856
- construct_sequence: "GETKIIYHLDGQETPYLVKLPLPAERVTLADFKGVLQRPSYKFFFKSMDDDFGVVKEEISDDNAKLPCFNGRVVSWLSSA [V78S]"
  abundance fitness: -0.587
- construct_sequence: "GETKIIYHLDGQETPYLVKLSLPAERVTLADFKGVLQRPSYKFFFKSMDDDFGVVKEEISDDNAKLPCFNGRVVSWLVSA [P21S]"
  abundance fitness: -0.313

Source of measurements: the Human Domainome abundance scans (Beltran et al. 2025)
